Data provenance is patent US20260152527A1.

Assay: In vivo topical administration pharmacokinetics of K173, rabbit (aqueous humor, cornea)
Conditions: aqueous humor, topical or ocular, 5 mg/ml, Group 3 (8 BID doses), topical 5 mg/ml, 1 hr post-last dose, OD, individual animals, read-out: K173 Concentrations (ng/mL) in Rabbit Aqueous Humor OD Sample
Positions of bridges follow the written chain, without caps; N, C: chain ends. Non-standard residues stand in square brackets, D forms with d. Residues, ends and D or L forms follow the SMILES beside them. Triazole bridges read from a SMILES are 1,4-linked. *: point of attachment. Benzoyl(3,5-(OH)2) = O=C(c1cc(O)cc(O)c1)*; Lys(N3) = [N-]=[N+]=NCCCC[C@H](N)C(=O)O; dPhe(4-F) = N[C@H](Cc1ccc(F)cc1)C(=O)O; Nle = CCCC[C@H](N)C(=O)O; Pra = C#CC[C@H](N)C(=O)O

# molecule, level at 1 h / ng/mL
records = [
    ("CCCC[C@H](NC(=O)c1cc(O)cc(O)c1)C(=O)N[C@H]1CCCCn2cc(nn2)C[C@@H](C(N)=O)NC(=O)[C@H](Cc2c[nH]c3ccccc23)NC(=O)[C@H](CCCNC(=N)N)NC(=O)[C@@H](Cc2ccc(F)cc2)NC(=O)[C@H](Cc2c[nH]cn2)NC1=O [KR-072] ({Benzoyl(3,5-(OH)2)}-[Nle][Lys(N3)]H[dPhe(4-F)]RW[Pra]-NH2; triazole 2-7)", 5.13),
]
